Reference source: patent US10941157B2

Tested on: Rhizoctonia solani (Rs)
Test: In vitro pathogen growth inhibition assay, Rs (mycelial plugs)
Format: cell-based
Conditions: Rhizoctonia solani, 48 h, ≥90% growth inhibition; mycelial plugs; 48 hours; vs 2% DMSO control; read-out: Compound Concentration (ppm) sufficient for ≥90% inhibition of Rs
Metric: IC90 (mg/L)
Reply with just the number (in mg/L).

{"columns": ["Smiles data", "Reading unit", "IC90"],
 "data": [
  ["COc1ccc(F)cc1[C@H](Cn1c(=O)n([C@H](C)C(=O)N2CCCC2)c(=O)c2c(C)c(-n3nccn3)sc21)OCCC#N", "mg/L", 0.4]
]}

Prompt: Please look up its IC90: `COc1ccc(F)cc1[C@H](Cn1c(=O)n(C(C)(C)C(=O)NC(C)C)c(=O)c2c(C)c(-n3nccn3)sc21)OC(C)=O`
Response: 0.08

Prompt: Please look up its IC90: `COCCO[C@@H](Cn1c(=O)n(C(C)(C)C(=O)NC(C)C)c(=O)c2c(C)c(-n3cccn3)sc21)c1cc(F)ccc1OC`
Response: 10

Prompt: Please look up its IC90: `CCc1ccc(F)cc1[C@H](Cn1c(=O)n(C(C)(C)C(=O)NC(C)C)c(=O)c2c(C)c(-n3nccn3)sc21)OCCO`
Response: 0.1

Prompt: Please look up its IC90: `CCOC(=O)c1sc2c(c1C)c(=O)n(C(C)(C)C(=O)NC(C)C)c(=O)n2C[C@H](OCC(C)(C)C#N)c1ccccc1OC`
Response: 2
